# targetDesc: recombinant human MGAT2 (Homo sapiens (Human))
# assayComment: Measurement of human MGAT2 inhibitory activity
# Assay type: biochemical
# conditionNotes: read-out: IC50 (concentration exhibiting 50% enzyme inhibition), Table 52
Task for the reader: assign each of the following compounds its reported log10 of IC50.
For clarity, the numbers are log10 values of IC50 expressed in nM.

Some entries whose results are on file:
# compound, measure, number
measured = [
    ("O=C1N[C@@]2(CCc3cc(OCC(F)(F)F)ccc32)Cc2nn(CCC3CC3)c(CNC(=O)C3CC3)c21 [Compound I-145]", "log10 of IC50", 1.92),
    ("Cc1cccc(-n2nc3c(c2NC(=O)CS(C)(=O)=O)C(=O)N[C@@]2(CCc4cc(OCCCC(F)(F)F)ccc42)C3)c1 [Compound I-179]", "log10 of IC50", 0.79),
    ("CS(=O)(=O)CC(=O)Nc1c2c(nn1CCC(F)(F)F)C[C@]1(CCc3cc(OCC(F)(F)F)ccc31)NC2=O [Compound I-256]", "log10 of IC50", 2.20),
]

Field: log10 of IC50. Fill in for each record below.
1. N#CC1(C(=O)NCc2c3c(nn2CCC2CC2)C[C@]2(CCc4cc(OCC(F)(F)F)ccc42)NC3=O)CC1 [Compound I-153]
2. CC(C)(O)c1ccc(-n2nc3c(c2NC(=O)CS(C)(=O)=O)C(=O)N[C@@]2(CCc4cc(OCCCC(F)(F)F)ccc42)C3)cc1 [Compound I-197]
3. CS(=O)(=O)CC(=O)Nc1c2c(nn1-c1ccncn1)C[C@@]1(CCc3cc(OCC(F)(F)F)ccc31)NC2=O [Compound I-272]
4. Cc1cccc(-n2nc3c(c2NC(=O)CS(C)(=O)=O)C(=O)N[C@]2(CCc4cc(OCC(F)(F)F)ccc42)C3)c1 [Compound I-267]

RESULT:
2.38
1.38
1.30
0.99

====

# assayComment: Powder solubility test
# Format: physicochemical
# conditionNotes: pH 6.8, aqueous buffer, thermodynamic from solid, JP-2 solution, 37° C.
measure: solubility at 1 h (µM)
One number for each entry, in µM.

QUERY: Quick one: solubility at 1 h for "Cc1ccc(-n2nc3c(c2NC(=O)CS(C)(=O)=O)C(=O)N[C@](C)(c2ccc(OCC(F)(F)F)cc2F)C3)nc1" ?
RESULT: 3.4

====

# targetDesc: recombinant human MGAT2 (Homo sapiens (Human))
# assayComment: Measurement of human MGAT2 inhibitory activity
# Format: biochemical
# conditionNotes: read-out: IC50 (concentration exhibiting 50% enzyme inhibition), Table 53
Strictly below 30 nM in IC50: 1.0. Otherwise: 0.0.

Use the examples below as a reference point.
# sampleSmiles, labelValue
records = [
    ("CS(=O)(=O)CC(=O)Nc1c2c(nn1CCC1CC1)C[C@]1(CCc3cc(OCC(F)(F)F)c(F)cc31)NC2=O", 1.0),
    ("Cc1ccc(-n2nc3c(c2NC(=O)CS(C)(=O)=O)C(=O)N[C@@]2(CCc4cc(OCC(C)(C)F)ccc42)C3)nc1", 1.0),
    ("N#Cc1ccc(-n2nc3c(c2C(=O)N[C@H]2CC[C@@H](O)C2)C(=O)N[C@@]2(CCc4cc(OCC(F)(F)F)ccc42)C3)nc1", 0.0),
    ("CS(=O)(=O)CC(=O)Nc1c2c(nn1CCC1CC1)C[C@@]1(CCc3cc(CCC(F)(F)F)ccc31)NC2=O", 1.0),
]

QUERY: Record "CS(=O)(=O)CC(=O)Nc1c2c(nn1CCn1cccn1)C[C@@]1(CCc3cc(OCC(F)(F)F)ccc31)NC2=O" : is its IC50 strictly below 30 nM?
RESULT: 0.0

QUERY: Next record, please: "Cc1ccc(-n2nc3c(c2NC(=O)CS(C)(=O)=O)C(=O)N[C@@]2(CCc4cc(OCC(F)F)ccc42)C3)nc1"
RESULT: 1.0

QUERY: Next record, please: "CS(=O)(=O)CC(=O)Nc1c2c(nn1CCCOC(F)(F)F)C[C@]1(CCc3cc(CCC(F)(F)F)ccc31)NC2=O"
RESULT: 1.0

====

Task for the reader: assign each of the following molecules its reported IC50.
# targetDesc: recombinant human MGAT2 (Homo sapiens (Human))
# assayComment: Measurement of human MGAT2 inhibitory activity
# Assay type: biochemical
# conditionNotes: read-out: IC50 (concentration exhibiting 50% enzyme inhibition), Table 53
Give bare numbers, in µM.

# molecule, targetDesc, IC50 / µM
data = [
    ("CS(=O)(=O)CC(=O)Nc1c2c(nn1CCC1CC1)C[C@@]1(CCc3cc(N4CC(c5ccccc5)C4)ccc31)NC2=O [II-33]", "recombinant human MGAT2 (Homo sapiens (Human))", 0.0033),
    ("CS(=O)(=O)CC(=O)Nc1c2c(nn1-c1ccc(C#N)cn1)CC1(Cc3cc(F)c(F)cc3C1)NC2=O [II-102]", "recombinant human MGAT2 (Homo sapiens (Human))", 0.0563),
    ("Cc1ccc(-n2nc3c(c2C(=O)NCC(N)=O)C(=O)N[C@@]2(CCc4cc(OCC(F)(F)F)ccc42)C3)nc1 [II-196]", "recombinant human MGAT2 (Homo sapiens (Human))", 0.0187),
    ("CS(=O)(=O)CC(=O)Nc1c2c(nn1CCCOC(F)(F)F)C[C@@]1(CCOc3cc(C4CC4)ccc31)NC2=O [II-279]", "recombinant human MGAT2 (Homo sapiens (Human))", 0.00112),
    ("Cc1ccc(-n2nc3c(c2C(=O)NCC#N)C(=O)N[C@@]2(CCOc4cc(OCC(F)(F)F)ccc42)C3)nc1 [II-228]", "recombinant human MGAT2 (Homo sapiens (Human))", 0.037),
]

Field: IC50. Fill in for each record below.
1. N#Cc1ccc(-n2nc3c(c2C(=O)NCC2(C#N)CC2)C(=O)N[C@@]2(CCc4cc(OCC(F)(F)F)ccc42)C3)nc1 [II-190]
2. N#Cc1ccc(-n2nc3c(c2C(=O)NCCO)C(=O)N[C@@]2(CCc4cc(OCC(F)(F)F)ccc42)C3)nc1 [II-180]

RESULT:
1. 0.00635
2. 0.0585

====

# targetDesc: recombinant human MGAT2 (Homo sapiens (Human), UniProt Q3SYC2)
# Sequence (Q3SYC2 whole entry): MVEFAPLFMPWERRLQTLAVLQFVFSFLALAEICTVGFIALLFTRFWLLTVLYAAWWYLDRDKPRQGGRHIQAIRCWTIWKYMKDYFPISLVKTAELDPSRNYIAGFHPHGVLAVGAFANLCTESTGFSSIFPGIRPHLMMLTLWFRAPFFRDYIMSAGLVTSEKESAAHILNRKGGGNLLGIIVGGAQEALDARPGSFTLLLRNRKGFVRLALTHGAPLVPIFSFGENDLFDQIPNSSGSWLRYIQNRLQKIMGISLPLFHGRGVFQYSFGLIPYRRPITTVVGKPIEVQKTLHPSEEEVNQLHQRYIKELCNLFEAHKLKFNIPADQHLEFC
# assayComment: Measurement of human MGAT2 inhibitory activity
# Type: biochemical
# conditionNotes: read-out: IC50 (concentration exhibiting 50% enzyme inhibition), Table 52
measure: IC50 (nM)
One number for each entry, in nM.

Some entries whose results are on file:
# sampleSmiles, unitOfMeasurement, IC50
rows = [
    ("O=C1N[C@@]2(CCc3cc(OCC(F)(F)F)ccc32)Cc2nn(CCC3CC3)c(C(=O)O)c21", "nM", 190),
    ("Cc1cc(C(=O)Nc2c3c(nn2CCC2CC2)C[C@]2(CCc4cc(OCC(F)(F)F)ccc42)NC3=O)on1", "nM", 73),
    ("CS(=O)(=O)CC(=O)Nc1c2c(nn1-c1ccc(F)cc1)C[C@@]1(CCc3cc(OCC(F)(F)F)ccc31)NC2=O", "nM", 5.5),
]

Field: IC50. Fill in for each record below.
1. Cc1ccccc1-n1nc2c(c1NC(=O)CS(C)(=O)=O)C(=O)N[C@@]1(CCc3cc(OCCCC(F)(F)F)ccc31)C2
2. O=C1N[C@@]2(CCc3cc(OCC(F)(F)F)ccc32)Cc2nn(CCC3CC3)c(CNS(=O)(=O)C3CCOCC3)c21
3. Cc1ccnc(-n2nc3c(c2NC(=O)CS(C)(=O)=O)C(=O)N[C@@]2(CCc4cc(OCC(F)(F)F)ccc42)C3)c1
4. CS(=O)(=O)NCc1c2c(nn1CCC1CC1)C[C@]1(CCc3cc(OCCCC(F)(F)F)ccc31)NC2=O

RESULT:
150
270
3.1
190

====

# assayComment: Metabolism stability test
# Type: in vitro ADME
# conditionNotes: human liver microsomes, 30 minutes, 37° C., NADPH, 0.5 μmol/L of test compound
measure: Remaining rate (%)
Give bare numbers, in %.

Some entries whose results are on file:
# compound, Remaining rate (%)
records = [
    ("Cc1ccc(-n2nc3c(c2NC(=O)CS(C)(=O)=O)C(=O)N[C@@]2(CCc4cc(OCCCC(F)(F)F)ccc42)C3)nn1 [II-103]", 95.6),
    ("CS(=O)(=O)CC(=O)Nc1c2c(nn1CCC1CC1)C[C@]1(CCc3cc(OCC(F)(F)F)ccc31)NC2=O [Compound I-8]", 102),
    ("CS(=O)(=O)CC(=O)Nc1c2c(nn1-c1ccc(C#N)cn1)C[C@]1(CCc3cc(N4CC(F)(F)C4)ccc31)NC2=O [Compound I-67]", 89),
    ("CS(=O)(=O)CC(=O)Nc1c2c(nn1-c1ccc(C#N)cn1)C[C@]1(CCc3cc(OCC(F)(F)F)ccc31)NC2=O [Compound I-190]", 96.6),
    ("CS(=O)(=O)CC(=O)Nc1c2c(nn1CCCOC(F)(F)F)C[C@@]1(CCc3cc(OCC(F)(F)F)cc(F)c31)NC2=O [II-93]", 103),
]

Field: Remaining rate (%). Fill in for each record below.
1. CS(=O)(=O)CC(=O)Nc1c2c(nn1-c1ccc(F)cn1)C[C@]1(CCOc3cc(OCC(F)(F)F)ccc31)NC2=O [II-295]
2. Cc1ccc(-n2nc3c(c2NC(=O)CS(C)(=O)=O)C(=O)N[C@](C)(c2ccc(OCC(F)(F)F)cc2F)C3)nc1 [II-94]

RESULT:
1. 102
2. 98.4
